meta.source: patent US20240173419A1

Target: CDK2 (Homo sapiens)
Construct: endogenous in cells; host or cells: MKN1 cells
Test: CDK2 degradation in MKN1 cells (AlphaLISA)
Format: cell-based
Details: 14 h incubation, read-out: CDK2 degradation 14 h: Mean external-Abs DC50
Answer each item with its documented DC50.

Cc1cc(S(=O)(=O)NC2CC(N3CCN(CC4CCN(c5ccc(Cl)c(N6CCC(=O)NC6=O)c5)CC4)CC3)C2)ccc1Nc1ncc(C(F)(F)F)c(N2CCCC(C)(O)C2)n1 (stereo not drawn): < 100 nM

Please give DC50 for each item listed below.
1. CC1(O)CCCN(c2nc(Nc3ccc(S(=O)(=O)NC4CC(CCN5CCN(c6ccc(C7CCC(=O)NC7=O)c(F)c6)CC5)C4)cc3C(F)F)ncc2C(F)(F)F)C1 (stereo not drawn)
2. Cc1cc(S(=O)(=O)N2CC3(CCN(CC4CCN(c5ccc6c(c5F)n(C)c(=O)n6C5CCC(=O)NC5=O)CC4)CC3(F)F)C2)ccc1Nc1ncc2ccc(=O)n(C3CCCC3)c2n1 (stereo not drawn)

Result string:
["< 100 nM", "100 to 500 nM"]

###

Could you please report measured DC50 for the items listed next?
Target: CDK2 (Homo sapiens, UniProt P24941)
Construct: endogenous in cells; host or cells: MKN1 cells
Test: CDK2 degradation in MKN1 cells (AlphaLISA)
Type: cell-based
Conditions: 14 h incubation, read-out: CDK2 degradation 14 h: Mean external-Abs DC50
Experimental: Degradation of CDK2 in MKN1 cells was measured using AlphaLISA technology (PerkinElmer ALSU-TCDK2-A10K). MKN1 cells were maintained in RPMI1640 medium containing 10% FBS+1× penn/strep. […] Under subdued light, the plates were analyzed on an EnVision Microplate Reader (PerkinElmer Model 2009-0030). […] The data were analyzed using Xlfit (v5.3. 1.3) and the dose-dependent CDK2 degradation data were fit using a four-parameter logistic model to calculate DC50.

Cc1cc(S(=O)(=O)N2CCC(CN(C)C3CCN(c4cccc5c4n(C)c(=O)n5C4CCC(=O)NC4=O)CC3)CC2)ccc1Nc1nc(OC2CCCCC2)c2nc[nH]c2n1 (stereo not drawn) [I-970]: < 100 nM
Cc1cc(S(=O)(=O)C2CC3(CCN(CC4CCN(c5ccc(C6CCC(=O)NC6=O)cc5)CC4)CC3)C2)ccc1Nc1ncc2cc(Cl)c(=O)n(C3CCCC3)c2n1 (stereo not drawn) [I-81]: < 100 nM

Turning now to a further record.
Query string: Which DC50 value is on record for Cc1cc(S(=O)(=O)NC2CCN(CC3(C)CN(c4ccc(C5CCC(=O)NC5=O)c(Cl)c4)C3)CC2)ccc1Nc1ncc(C(F)(F)F)c(N2CCC[C@](C)(O)C2)n1 (stereo partly drawn) [I-910] ?
Result string: 100 to 500 nM

###

Target: CDK2 (Homo sapiens, UniProt P24941)
Construct: endogenous in cells; host or cells: MKN1 cells
Assay: CDK2 degradation in MKN1 cells (AlphaLISA)
Format: cell-based
Details: 14 h incubation
endpoint.label: CDK2 degradation 14 h: Average Dmax %

CCOc1cc(NC2CCC(=O)NC2=O)ccc1N1CCC(CN2CCC3(CC2)CC(S(=O)(=O)c2ccc(Nc4ncc5cc(Cl)c(=O)n(C6CCCC6)c5n4)c(C)c2)C3)CC1 (stereo not drawn): A (A (>75% o))
CC(C1CCN(c2ccc(C3CCC(=O)NC3=O)c(F)c2)CC1)N1CCC(NS(=O)(=O)c2ccc(Nc3ncc(C(F)(F)F)c(N4CCCC(C)(O)C4)n3)c(F)c2)C(F)C1 (stereo not drawn): A (A (>75% o))
CC1CN(CC2CCN(c3ccc(C4CCC(=O)NC4=O)c(F)c3)CC2)CCC1NS(=O)(=O)c1ccc(Nc2ncc(C(F)(F)F)c(N3CCCC(C)(O)C3)n2)c(F)c1 (stereo not drawn) [I-1061]: A (A (>75% o))
Cc1cc(S(=O)(=O)N[C@@H](C)CO[C@H]2CC[C@H](CN3CCN(c4ccc5c(c4F)n(C)c(=O)n5C4CCC(=O)NC4=O)CC3)CC2)ccc1Nc1ncc2ccc(=O)n(C3CCCC3)c2n1 (stereo partly drawn): A (A (>75% o))
Cc1cc(S(=O)(=O)NC2CC(N3CCN(CC4CCN(c5ccc(Cl)c(N6CCC(=O)NC6=O)c5)CC4)CC3)C2)ccc1Nc1ncc(C(F)(F)F)c(N2CCCC(C)(O)C2)n1 (stereo not drawn): A (A (>75% o))

Return reported CDK2 degradation 14 h: Average Dmax % values for all items listed beneath this line.
1. Cc1cc(S(=O)(=O)C2CCC(CN(C)C3CCN(c4cccc5c4n(C)c(=O)n5C4CCC(=O)NC4=O)CC3)CC2)ccc1Nc1ncc2cc(Cl)c(=O)n(C3CCCC34CC4)c2n1 (stereo not drawn)
2. Cc1cc(S(=O)(=O)N2CCC(CN(C)C3CCN(c4cccc5c4n(C)c(=O)n5C4CCC(=O)NC4=O)CC3)CC2)ccc1Nc1ncc2cc(F)c(=O)n(C3CCCC3)c2n1 (stereo not drawn)
3. Cc1cc(S(=O)(=O)C2CC3(CCN(CC4CCN(c5cccc(NC6CCC(=O)NC6=O)c5)CC4)CC3)C2)ccc1Nc1ncc2cc(Cl)c(=O)n(C3CCCC3)c2n1 (stereo not drawn)
4. Cc1cc(S(=O)(=O)N2CCC(CN(C)C3CCN(c4cccc5c4n(C)c(=O)n5C4CCC(=O)NC4=O)CC3)CC2)ccc1Nc1ncc2c(n1)N(C1CCCC1)C(=O)C21CC1 (stereo not drawn)
5. Cc1cc(S(=O)(=O)N2CCN(CCC3CCN(c4cccc5c4n(C)c(=O)n5C4CCC(=O)NC4=O)CC3)CC2)ccc1Nc1ncc2cc(Cl)c(=O)n(C(C)C)c2n1 (stereo not drawn)
6. COc1cc(NC2CCC(=O)NC2=O)ccc1N1CCC(CN2CCC3(CC2)CC(S(=O)(=O)c2ccc(Nc4ncc5cc(Cl)c(=O)n(C6CCCC6)c5n4)c(C)c2)C3)CC1 (stereo not drawn)

Result string:
1. A (A (>75% o))
2. A (A (>75% o))
3. A (A (>75% o))
4. A (A (>75% o))
5. B (B (>50% -75%))
6. A (A (>75% o))

Give CDK2 degradation 14 h: Average Dmax % for each of the items listed below.
1. Cc1cc(S(=O)(=O)C2CC3(CCN(CC4CCN(c5ccc6c(c5F)n(C)c(=O)n6C5CCC(=O)NC5=O)CC4)CC3)C2)ccc1Nc1ncc2cc(Cl)c(=O)n(C(C)C(C)(C)O)c2n1 (stereo not drawn)
2. Cc1cc(S(=O)(=O)NCCOCCOCCNC(=O)COc2ccc(C3CCC(=O)NC3=O)cc2)ccc1Nc1ncc2cc(Cl)c(=O)n(C3CCCC3)c2n1 (stereo not drawn)
3. Cc1cc(S(=O)(=O)C2CC3(CCN(CC4CCN(c5cccc6c5n(C)c(=O)n6C5CCC(=O)NC5=O)CC4)CC3)C2)ccc1Nc1ncc(C(F)(F)F)c(N2CCCC(C)(O)C2)n1 (stereo not drawn)

Result string:
D (D (<25%))
B (B (>50% -75%))
B (B (>50% -75%))

###

Target: CDK2 (Homo sapiens)
Construct: endogenous in cells; host or cells: MKN1 cells
Experiment: CDK2 degradation in MKN1 cells (AlphaLISA)
Type: cell-based
Conditions: 14 h incubation
endpoint.label: CDK2 degradation 14 h: Average Dmax %

Cc1cc(S(=O)(=O)C2CC3(CCN(CC4CCN(c5ccc6c(c5F)n(C)c(=O)n6C5CCC(=O)NC5=O)CC4)CC3)C2)ccc1Nc1ncc(C(F)(F)F)c(N2CCC(C(C)(C)O)C2)n1 (centres unmarked) [I-505]: A (A (>75% o))
Cc1cc(S(=O)(=O)NCCOC2CCC(CN3CCC(c4ccc5c(c4)n(C)c(=O)n5C4CCC(=O)NC4=O)CC3)CC2)ccc1Nc1ncc(C(F)(F)F)c(C2CCC(C)(O)CC2)n1 (centres unmarked): B (B (>50% -75%))
Cc1cc(S(=O)(=O)N2CCC(CN(C)C3CCN(c4cccc5c4n(C)c(=O)n5C4CCC(=O)NC4=O)CC3)CC2)ccc1Nc1nccc(-c2cnc(C)n2C(C)C)n1 (centres unmarked): A (A (>75% o))
Cc1cc(S(=O)(=O)NC2CCC(CN3CCN(c4ccc(C5CCC(=O)NC5=O)c(F)c4)CC3)CC2)cc(F)c1Nc1ncc(C(F)(F)F)c(N2CCCC(C)(O)C2)n1 (centres unmarked): A (A (>75% o))

Please give CDK2 degradation 14 h: Average Dmax %, item by item, for the list that follows.
1. Cc1cc(S(=O)(=O)NC2CC(N3CCN(CC4CCN(c5ccc(Cl)c(C6CCC(=O)NC6=O)c5)CC4)CC3)C2)ccc1Nc1ncc(C(F)(F)F)c(N2CCCC(C)(O)C2)n1 (centres unmarked)
2. Cc1cc(S(=O)(=O)N2CC(OCCN3CCC(c4ccc5c(c4)n(C)c(=O)n5C4CCC(=O)NC4=O)CC3)C2)ccc1Nc1ncc2ccc(=O)n(C3CCCC3)c2n1 (centres unmarked)
3. Cc1cc(S(=O)(=O)NC2CC(N3CCC4(CC3)CN(Cc3cccc5c3n(C)c(=O)n5C3CCC(=O)NC3=O)C4)C2)ccc1Nc1ncc(C(F)(F)F)c(N2CCCC(C)(O)C2)n1 (centres unmarked)
4. CC1CC(NS(=O)(=O)c2ccc(Nc3ncc(C(F)(F)F)c(N4CCCC(C)(O)C4)n3)c(F)c2)CCN1CC1CCN(c2ccc(C3CCC(=O)NC3=O)c(F)c2)CC1 (centres unmarked) [I-1037]
5. CC1(O)CCCN(c2nc(Nc3ccc(S(=O)(=O)NC4CC5CCC(C4)N5CC4CCN(c5ccc(C6CCC(=O)NC6=O)c(F)c5)CC4)cc3F)ncc2C(F)(F)F)C1 (centres unmarked)
6. Cc1cc(S(=O)(=O)N[C@H]2CC[C@H](OCCN3CCC(c4ccc5c(c4)n(C)c(=O)n5C4CCC(=O)NC4=O)CC3)CC2)ccc1Nc1ncc2cc(Cl)c(=O)n(C3CCCC3)c2n1 (some centres unmarked)

Result string:
A (A (>75% o))
A (A (>75% o))
A (A (>75% o))
A (A (>75% o))
B (B (>50% -75%))
A (A (>75% o))
